yeast fitness reference
B1: tRNA (parent)
chain: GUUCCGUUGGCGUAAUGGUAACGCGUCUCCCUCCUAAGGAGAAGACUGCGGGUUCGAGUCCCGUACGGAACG

variants of: B1; assay: yeast fitness relative to wild type (ratio to wild type); higher = fitter; tRNA-Arg(CCU), competitive growth, 37 C, YPD
Fewer inactive variants are shown than the library holds.
readout_kind: yeast fitness

• C11G C22G C66A A69U = 0.533
• C5U C22G C29A = 0.585
• C5G C55A A57U = 0.55
• C55U C61G C62G = 0.629
• C5A G48C G67C = 0.591
• C4G C29A C46A G58A = 0.525
• C4U C31G C46U = 0.921
• U26C A69C = 0.885
• C4U G39U = 0.834
